# assayDetails: Plasma stability assay in mouse plasma
# Assay type: in vitro ADME, CD-1 mouse
# experimentalContext: 10 μM prodrug, 37° C., prodrug remaining at 30 min compared to 0 min
Property: Percent Remaining (%) M; scope: individual molecules
Entry rule: numbers only, all in %.

[[record]]
molecule = "CN1C[C@H]2CCN(c3c(-c4cnc5c(c4)c(=O)c(C(=O)O)cn5C)cnc4[nH]c5c(N(C)C(=O)OCOP(=O)(O)O)cc(F)c(F)c5c34)[C@H]2C1 [Example 1.18]"
readoutname = "Percent Remaining (%) M"
unitslabel = "%"
valuereported = 72.0


From here, focus on the item given below.
Input line: // lookup Percent Remaining (%) M for CN1C[C@@H]2CCN(c3c(-c4cnc5c(c4)c(=O)c(C(=O)O)cn5C)cnc4[nH]c5c(N(C)C(=O)OCOC(=O)/C=C/C(=O)O)cc(F)c(C#N)c5c34)[C@@H]2C1 [Example 1.02]
Output line: 70.2

----------
# assayDetails: Plasma stability assay in mouse plasma
# Type: in vitro ADME, CD-1 mouse
# experimentalContext: 10 μM prodrug, 37° C., prodrug remaining at 30 min compared to 0 min
# Procedure: The degradation of prodrug and formation of active drug of present invention were monitored by current plasma stability assay. The assay is conducted in human plasma (purchased from Bioreclamation, Lot No. BRH1380385) or mouse plasma (prepared in-house using CD-1 mouse purchased from Vital River). Plasma is spiked with the test prodrug (10 μM final concentration) dissolved in DMSO (or water) and incubated at 37° C. […] Samples are centrifuged, the supernatant are removed and analyzed by LC-MS/MS. […]
Property: Percent Remaining (%) M; scope: individual molecules
Entry rule: numbers only, all in %.

Would you please look over these solved cases?
[[record]]
molecule = "CNc1cc(F)c(C#N)c2c1[nH]c1ncc(-c3cnc4c(c3)c(=O)c(C(=O)OCc3oc(=O)oc3C)cn4C)c(N3CC[C@H]4CN(C)C[C@H]43)c12 [Example 1.13]"
unitslabel = "%"
valuereported = 0.6

[[record]]
molecule = "CNc1cc(F)c(C#N)c2c1[nH]c1ncc(-c3cnc4c(c3)c(=O)c(C(=O)OCCOC(=O)[C@@H](N)C(C)C)cn4C)c(N3CC[C@H]4CN(C)C[C@H]43)c12 [Example 1.08]"
unitslabel = "%"
valuereported = 1.3


From here, focus on the item given below.
Input line: // lookup Percent Remaining (%) M for CNc1cc(F)c(C#N)c2c3c(N4CC[C@H]5CN(C)C[C@H]54)c(-c4cnc5c(c4)c(=O)c(C(=O)O)cn5C)cn(COP(=O)(O)O)c-3nc12 [Example 1.04]
Output line: 79.1

----------
# assayDetails: Lyophilisation Solubility Assay (LYSA)
# Format: physicochemical
# experimentalContext: aqueous buffer, thermodynamic from solid; 0.05 M phosphate buffer, pH 6.5
readoutName: solubility

[[record]]
molecule = "CNc1cc(F)c(C#N)c2c1[nH]c1ncc(-c3cnc4c(c3)c(=O)c(C(=O)O)cn4C)c(N3CC[C@H]4C[N+](C)(COP(=O)(O)O)C[C@H]43)c12 (stereo partly shown)"
valuereported = "> 1060 µg/mL"

[[record]]
molecule = "CN1C[C@@H]2CCN(c3c(-c4ccc5ccc(C(=O)O)c(=O)n5c4)cnc4[nH]c5c(N(C)C(=O)CNC(=O)CNC(=O)CN)cc(F)c(F)c5c34)[C@@H]2C1"
valuereported = "> 930 µg/mL"

[[record]]
molecule = "CNc1cc(F)c(C#N)c2c3c(N4CC[C@H]5CN(C)C[C@H]54)c(-c4cnc5c(c4)c(=O)c(C(=O)O)cn5C)cn(COP(=O)(O)O)c-3nc12"
valuereported = "> 950 µg/mL"

[[record]]
molecule = "CN1C[C@@H]2CCN(c3c(-c4ccc5ccc(C(=O)O)c(=O)n5c4)cnc4[nH]c5c(N(C)C(=O)OCOP(=O)(O)O)cc(F)c(F)c5c34)[C@@H]2C1"
valuereported = "> 875 µg/mL"

[[record]]
molecule = "CN1C[C@@H]2CCN(c3c(-c4ccc5ccc(C(=O)O)c(=O)n5c4)cnc4[nH]c5c(N(C)C(=O)CNC(=O)CN)cc(F)c(F)c5c34)[C@@H]2C1"
valuereported = "> 915 µg/mL"


From here, focus on the item given below.
Input line: // lookup solubility for CNc1cc(F)c(F)c2c1[nH]c1ncc(-c3cnc4c(c3)c(=O)c(C(=O)O)cn4C)c(N3CC[C@H]4CN(C)C[C@H]43)c12 [Example 1.26E]
Output line: 137 µg/mL
